# ASSAY NOTES: collision cross section (TIMS, N2 drift gas) of the primary ion; higher = larger gas-phase ion size
# CONDITION NOTES: ionization mode: ESI+; ion species: [M+H]+
PROPERTY: collision cross section (Å²)
Quick note: give the figure in Å², leave out the unit.

Qu. Field request: collision cross section | item: COc1cc(OC)nc(NC(=O)NS(=O)(=O)N(C)S(C)(=O)=O)n1
Ans. 175.88

Qu. // query collision cross section value for entry Cc1cccc(C)c1N(Cn1cccn1)C(=O)CO [Metazachlor-2-hydroxy]
Ans. 156.95

Qu. Value lookup for collision cross section; key = C#C[C@]1(OC(C)=O)CC[C@H]2[C@@H]3CCC4=C/C(=N/O)CC[C@@H]4[C@H]3CC[C@@]21CC [Norgestimate]
Ans. 200.98

Qu. Using the record for CCc1ccc(CCOc2ccc(CC3SC(=O)NC3=O)cc2)nc1 (stereo not given) , report its collision cross section.
Ans. 179.07

Qu. Which collision cross section value belongs to CN/C(=N\[N+](=O)[O-])NCc1cnc(Cl)s1 ?
Ans. 153.61

----------
# ASSAY NOTES: collision cross section (TIMS, N2 drift gas) of the primary ion; higher = larger gas-phase ion size
# CONDITION NOTES: ionization mode: ESI-; ion species: [M-H]-
Counter-ions that a name gives are not always drawn.
So basically: collision cross section at 200 Å² or higher? That is T. Lower than 200 Å²? That is F.

Qu. Check this compound for collision cross section at or above 200 Å²: CCC(=C(c1ccc(O)cc1)c1ccc(OCCN(C)C)cc1)c1ccccc1 [4-Hydroxytamoxifen]
Ans. T

Qu. Item O=C1C=C(N(Cc2ccc(Cl)nc2)CC(F)F)CO1 with collision cross section of 200 Å² or above?
Ans. F

Qu. Dear colleague, could you confirm whether COc1nc(C)nc(NC(=O)NS(=O)(=O)c2ccccc2Cl)n1 has collision cross section at or above 200 Å²?
Ans. F

Qu. hey, is collision cross section for this one >= 200 Å²? O=C1Nc2ccc(Cl)cc2C(c2ccccc2)=NC1O (configuration not stated)
Ans. F

Qu. Does the compound CCCCCCCCCCCCOS(=O)(=O)O [Dodecyl sulfate] have recorded collision cross section that is 200 Å² or more?
Ans. F

Qu. Decide: collision cross section of CC1(C)CC(NC(=O)c2cccc(C(=O)NC3CC(C)(C)NC(C)(C)C3)c2)CC(C)(C)N1 >= 200 Å²?
Ans. T

Qu. Does the reported collision cross section for O=C(c1ccc(OCCN2CCCCC2)cc1)c1c(-c2ccc(O)cc2)sc2cc(O)ccc12 fall at or above the 200 Å² mark?
Ans. T

Qu. Reported collision cross section reaches at least 200 Å² for c1ccc2sc(NC3CCCCC3)nc2c1 ?
Ans. F

Qu. Quick check: does Cc1cccc(C)c1NC(=O)CS(=O)(=O)O have collision cross section greater than or equal to 200 Å²?
Ans. F

Qu. Decide: is the reported value of collision cross section for CCNS(=O)(=O)c1ccccc1C [N-Ethyl-o-toluenesulfonamide] equal to or greater than 200 Å²?
Ans. F

Qu. Form field: collision cross section at least 200 Å²? Entry: COc1ccc2[nH]cc(CCNC(C)=O)c2c1
Ans. F

----------
# ASSAY NOTES: reversed-phase LC retention time (C18, 15 min MeOH gradient); higher = more hydrophobic / later elution
# CONDITION NOTES: ionization mode: ESI-; ion species: [M-H]-
Binary classification by reversed-phase LC retention time, with 10 min as an inclusive lower bound for 1; all other cases are 0.

Qu. Evaluate COc1ccc(Cl)cc1C(=O)NCCc1ccc(S(=O)(=O)NC(=O)NC2CCCCC2)cc1 [Glibenclamide] : reversed-phase LC retention time at minimum 10 min?
Ans. 1

Qu. Form field: reversed-phase LC retention time at least 10 min? Entry: O=C(O)c1cc(Oc2ccc(Cl)cc2Cl)ccc1[N+](=O)[O-] [Bifenox free acid]
Ans. 1

Qu. Answer whether reversed-phase LC retention time of CCCCOP(=O)(O)OCCCC [Di-n-butyl phosphate] is greater than or equal to 10 min.
Ans. 1

Qu. Say whether CCc1cccc(C)c1N(C(=O)CS(=O)(=O)O)[C@@H](C)C(=O)O shows reversed-phase LC retention time of 10 min or more.
Ans. 0

Qu. Decide: is the reported value of reversed-phase LC retention time for O=C(O)C(F)(F)C(F)(F)C(F)(F)OC(F)(F)F equal to or greater than 10 min?
Ans. 1

Qu. Quick check, reversed-phase LC retention time >= 10 min? O=P(O)(Oc1ccccc1)Oc1ccccc1 [Diphenylphosphate]
Ans. 1

Qu. Tell me whether reversed-phase LC retention time is at least 10 min here: O=C1C=C(N(Cc2ccc(Cl)nc2)CC(F)F)CO1
Ans. 0

Qu. I'd appreciate it if you could say whether NC(=O)Nc1ccc(Cl)c(Cl)c1 has reversed-phase LC retention time at least equal to 10 min.
Ans. 1

Qu. Say whether NC(CC(=O)N1CCn2c(nnc2C(F)(F)F)C1)Cc1cc(F)c(F)cc1F (stereo unspecified) shows reversed-phase LC retention time of 10 min or more.
Ans. 1

Qu. In plain terms: is recorded reversed-phase LC retention time at least 10 min for CCCc1nc(C)c2c(=O)nc(-c3cc(S(=O)(=O)N4CCN(CC)CC4)ccc3OCC)[nH]n12 ?
Ans. 1

Qu. Could you please find out whether CC[C@H](C)[C@H]1O[C@]2(CC[C@@H]1C)C[C@@H]1C[C@@H](C/C=C(\C)[C@@H](O[C@H]3C[C@H](OC)[C@@H](O[C@H]4C[C@H](OC)[C@@H](O)[C@H](C)O4)[C@H](C)O3)[C@@H](C)/C=C/C=C3\CO[C@@H]4[C@H](O)C(C)=C[C@@H](C(=O)O1)[C@]34O)O2 has reversed-phase LC retention time that meets 10 min or exceeds it?
Ans. 1
